Tested on: K-562 leukemia
EXPERIMENT SUMMARY: NCI tumour cell line growth inhibition, 48 h
READOUT: TGI

Incoming: # query: TGI | item `Nc1nc(Cl)cc(NCC2(CO)CCC2)n1` | system: K-562 leukemia
Outgoing: > 100 µM

Incoming: What measured TGI is associated with `Cc1[nH]n(-c2nc3c(c(=O)[nH]2)CCC3)c(=O)c1CCO` on K-562 leukemia?
Outgoing: > 100 µM

Incoming: API: value(readout= TGI, system= K-562 leukemia, query= COc1ccc2c(c1)N(C(C)=O)CN1C(=O)CCC21 (stereo unspecified) )
Outgoing: > 100 µM

Incoming: Any idea what TGI came out for CCOC(=O)c1cc(C2CCN(CC(C)CC)C2=S)c(C(=O)/C=C(/C)N)[nH]1 (stereo unspecified) on K-562 leukemia?
Outgoing: > 50 µM

Incoming: Recall the recorded TGI for `O=C(Nc1cccc(C(F)(F)F)c1)c1cccc(NC2=C(Cl)C(=O)N(Cc3ccccc3)C2=O)c1` with K-562 leukemia and state it.
Outgoing: 17.6 µM

Incoming: Identify the measured TGI of COc1ccc(C2CC(=O)Oc3ccccc3O2)cc1 (stereo unspecified) for K-562 leukemia.
Outgoing: > 100 µM

Incoming: Form field - read-out: TGI; system: K-562 leukemia; submitted item: `Cc1[nH]c(=O)nc(CC(O)(c2ccccc2)c2ccccc2)c1-c1ccccc1`
Outgoing: > 100 µM

Incoming: Find TGI (K-562 leukemia) for the entry C[C@]12CC(c3ccccc3O1)C(C#N)C(=O)N2 (stereo partly specified)
Outgoing: > 100 µM

Incoming: Query the reported TGI for K-562 leukemia; item: `c1ccc2[nH]c3[nH]c4[nH]c5ccccc5[nH]c4[nH]c3[nH]c2c1`
Outgoing: > 100 µM

Incoming: Provide value of TGI for this record tested with K-562 leukemia: `NS(=O)(=O)c1ccc(NC(=O)CC(=O)Nc2ccc(S(N)(=O)=O)cc2)cc1`
Outgoing: > 100 µM

Incoming: API: value(readout= TGI, system= K-562 leukemia, query= `O=C(NCCCNC(=O)OCc1ccc2c(Br)cc(Br)c(O)c2n1)OCc1ccc2c(Br)cc(Br)c(O)c2n1` )
Outgoing: > 100 µM

Incoming: Record lookup: for K-562 leukemia, what TGI belongs to `CC1(C)C=C(/C=N/Nc2ccc(Br)cc2)C(C#N)=C(O)C1(C#N)C#N` ?
Outgoing: > 100 µM

Incoming: Give TGI (K-562 leukemia) of the following compound: `CC(C)C[C@H](NC(=O)CCc1ccccc1)B(O)O`
Outgoing: 62.7 µM

Incoming: Fill in the recorded TGI for this compound, with K-562 leukemia as test system: Cc1cccc2c1Oc1cc(Cl)ccc1C2NC(=O)CN(C)C (stereo unspecified)
Outgoing: > 100 µM

Incoming: Notebook entry, K-562 leukemia assay: TGI of CC1=Nc2c([nH]c(=S)[nH]c2=O)NC(c2ccc(Cl)c(Cl)c2)C1 (stereo unspecified) = ?
Outgoing: > 100 µM

Incoming: Tell me reported TGI for O=C1C(Cl)C(c2ccc(Cl)cc2)N1n1cnc2ccccc2c1=O (stereo unspecified) , tested with K-562 leukemia.
Outgoing: > 100 µM

Incoming: Enter reported TGI observed with K-562 leukemia for `CN(C)CCNC(=O)c1cccc2nc3c4ccccc4c4ccccc4c3nc12`
Outgoing: 3.57 µM

Incoming: Report TGI for NC1=NC2(O)c3ccccc3C(=O)C2(O)N1 (stereo unspecified) tested on K-562 leukemia.
Outgoing: > 100 µM

Incoming: Missing value: TGI, K-562 leukemia, entry `CO[C@@](c1ccccc1)(c1nc(C#N)c(N)o1)C(F)(F)F` . Fill in?
Outgoing: > 100 µM

Incoming: Give recorded TGI with K-562 leukemia for the following compound: `C=C1C(=O)O[C@H]2[C@H]1[C@H](OC(=O)/C(C)=C\C)C[C@]1(CO1)[C@@H]1[C@H](OC(C)=O)C=C(C)[C@]21O`
Outgoing: 11.8 µM

Incoming: Find the measured TGI: item CC(=O)OCC1OC(n2c3c(c(-c4ccc(Cl)cc4)c(C#N)c2=S)C(=O)CC(C)(C)C3)C(OC(C)=O)C(OC(C)=O)C1OC(C)=O (stereo unspecified) , target or system K-562 leukemia.
Outgoing: > 100 µM

Incoming: Tell me reported TGI for `CC(C)CNc1nc(N)[nH]c(=O)c1NC=O` , tested with K-562 leukemia.
Outgoing: > 100 µM

Incoming: Fill in the recorded TGI for this compound, with K-562 leukemia as test system: O=C(O)C(Br)C(Br)c1ccccc1[N+](=O)[O-] (stereo unspecified)
Outgoing: > 100 µM

Incoming: Lookup: TGI / K-562 leukemia / `COC(=O)[C@H]1C=C[C@@H](C)n2c(=O)c3ccccc3c(=O)n21`
Outgoing: > 100 µM

Incoming: Lab note: need TGI for COc1cc(/C=C2\CC3C4CC=C5C[C@@H](N6CCCC6)CC[C@]5(C)C4CC[C@]3(C)[C@H]2OC(C)=O)ccc1OCCN1CCCCC1 (stereo partly specified) on K-562 leukemia, anyone have it?
Outgoing: 0.71 µM

Incoming: Request body: readout TGI, system K-562 leukemia, query `COC(=O)[C@@H](Cc1c[nH]c2ccccc12)NC(=O)/C=C/c1ccccc1` . Return the value.
Outgoing: > 100 µM

Incoming: Request: TGI, test system K-562 leukemia, entry COC1=CC(C2c3cc4c(cc3[C@@H](Nc3ccc([N+](=O)[O-])cc3)C3COC(=O)[C@H]23)OCO4)=CC(=O)C1=O (stereo partly specified)
Outgoing: > 96.6 µM

Incoming: Notebook entry, K-562 leukemia assay: TGI of `CN(C)[C@@H]1C(=O)C(C(=O)NCNCCCC(=O)O)=C(O)[C@@]2(O)C(=O)C3=C(O)c4c(O)cccc4[C@@](C)(O)[C@H]3C[C@@H]12` = ?
Outgoing: > 100 µM

Incoming: Give the reported TGI for `COc1ccc(/C=C/c2nc(=S)[nH][nH]2)cc1` (system: K-562 leukemia).
Outgoing: > 100 µM

Incoming: API: value(readout=TGI, system=K-562 leukemia) for record `BrC(Br)(Br)c1cnc2ccccc2n1`
Outgoing: 3.55 µM

Incoming: API: value(readout= TGI, system= K-562 leukemia, query= `Cc1ncc(CO)c(CN)c1O` )
Outgoing: > 100 µM

Incoming: API: value(readout= TGI, system= K-562 leukemia, query= CC1=CC2(O)OC3(CC2=C(C)C)C(C)CCC13 (stereo unspecified) )
Outgoing: > 100 µM

Incoming: Form field: TGI recorded for `O=C(/C=C/c1c(O)ccc2ccccc12)c1cccc2ccccc12` with K-562 leukemia (enter value)
Outgoing: > 88.6 µM

Incoming: Test system K-562 leukemia; read-out TGI; what value for CC1(C)CCCCCCCCCC(C)(CCCO)C1=O (stereo unspecified) ?
Outgoing: 73.7 µM

Incoming: For K-562 leukemia, provide TGI of CC(=O)OCC(OC(C)=O)C(OC(C)=O)C(OC(C)=O)C(=O)CNn1c(-c2ccccc2)nc2ccc(Br)cc2c1=O (stereo unspecified) please.
Outgoing: > 100 µM

Incoming: Could you share what TGI was measured for `Cc1cnc2[nH]c(-c3ccc(F)cc3)cc(=O)c2c1` , tested on K-562 leukemia?
Outgoing: 47 µM

Incoming: Give recorded TGI with K-562 leukemia for the following compound: C[C@H]1CCC/C=C/[C@@H]2C[C@H](O)C[C@H]2[C@H](O)[C@@H](S(=O)CCN)CC(=O)O1 (stereo partly specified)
Outgoing: > 100 µM

Incoming: Item: `CCOC(=O)CC1=NC(=Nc2cc(Cl)ccc2Cl)SC1` Test system: K-562 leukemia Read-out: TGI Value: ?
Outgoing: > 100 µM

Incoming: Write down the reported TGI of `CCCCCC(=O)OCC(=O)O[C@@H]1C[C@]2(C(C)C)O[C@@]1(C)[C@@H]1CC[C@@H](C)[C@H]1[C@@H]2OC(=O)/C=C/c1ccccc1` , test system: K-562 leukemia.
Outgoing: > 100 µM

Incoming: Kindly state the measured TGI obtained for `N#CC1=C(C#N)/C(=C(\C#N)C(C#N)C#N)N=C1N` with K-562 leukemia.
Outgoing: > 100 µM

Incoming: Lab note: need TGI with K-562 leukemia for entry `O=C1OC(c2ccccc2)=N/C1=C\c1c(O)cc(O)cc1O` , please look it up.
Outgoing: > 100 µM
